Each record here notes measured Dmax.
# TARGET_SYSTEM: IKZF3 (Homo sapiens, UniProt Q96SW2+Q9UKT9)
# Construct: endogenous in cells; host or cells: NCI-H929
# EXPERIMENT_SUMMARY: Protein degradation assay (In-Cell Western), IKZF3
# Format: cell-based
# CONDITION_INFO: NCI-H929 cells, 24 hours
VALUE_KIND: Dmax (%)

>>> numeric_readout("Cc1nc(N2CCN(Cc3ccc(Cc4ccc5c6c(cccc46)C(=O)N5[C@H]4CCC(=O)NC4=O)cc3)CC2)cc(-n2cnc(C(F)(F)F)c2)n1")
73.2
>>> numeric_readout("O=C1CCC(N2C(=O)c3cccc4c(Cc5ccc(CN6CCN(C(=O)c7cccc(-n8ccnc8)n7)CC6)cc5)ccc2c34)C(=O)N1 (stereo not drawn)")
70.3
>>> numeric_readout("O=C1CCC(N2C(=O)c3cccc4c(Cc5ccc(CN6CCN(c7ccnc(-n8ccnc8)n7)CC6)cc5)ccc2c34)C(=O)N1 (stereo not drawn)")
76.6
>>> numeric_readout("O=C1CC[C@H](N2Cc3c(OCc4ccc(CN5CCN(c6ccnc(-n7ccnc7)n6)CC5)cc4)cccc3C2=O)C(=O)N1")
71.4
>>> numeric_readout("Cc1nnc(-c2cccc(N3CCN(Cc4ccc(Cc5ccc6c7c(cccc57)C(=O)N6C5CCC(=O)NC5=O)cc4)CC3)n2)s1 (stereo not drawn)")
76.4
>>> numeric_readout("O=C1CCC(N2C(=O)c3cccc4c(Cc5ccc(CN6CCN(c7ccnc(-n8cnc(C(F)(F)F)c8)n7)CC6)cc5)ccc2c34)C(=O)N1 (stereo not drawn)")
76.2

---

# TARGET_SYSTEM: CRBN (Homo sapiens)
# Construct: purchased Cisbio 64BDCRBNPEG
# EXPERIMENT_SUMMARY: CRBN binding assay (HTRF competition)
# CONDITION_INFO: GST-labeled CRBN WT protein, thalidomide-red competition, 3 hours; read-out: HTRF CRBN IC50
pIC50: −log10 of the molar value.
VALUE_KIND: pIC50

>>> numeric_readout("Cc1ncn(-c2cccc(N3CCN(Cc4ccc(Cc5ccc6c7c(cccc57)C(=O)N6C5CCC(=O)NC5=O)cc4)CC3)n2)n1 (stereo not drawn) [Example 23]")
7.72
>>> numeric_readout("Cc1ncn(-c2cccc(N3CCN(Cc4ccc(Cc5ccc6c7c(cccc57)C(=O)N6[C@H]5CCC(=O)NC5=O)cc4)CC3)n2)n1 [Example 37]")
8.10
>>> numeric_readout("Cc1ncc(-c2nc(N3CCN(Cc4ccc(Cc5ccc6c7c(cccc57)C(=O)N6C5CCC(=O)NC5=O)cc4)CC3)cc(C(F)(F)F)n2)s1 (stereo not drawn) [Example 21]")
7.47

---

# TARGET_SYSTEM: IKZF3 (Homo sapiens, UniProt Q96SW2+Q9UKT9)
# Construct: endogenous in cells; host or cells: NCI-H929
# EXPERIMENT_SUMMARY: Protein degradation assay (In-Cell Western), IKZF3
# Type: cell-based
# CONDITION_INFO: NCI-H929 cells, 24 hours
Lab note - cut at 0.1 nM for DC50: MET if strictly below, NOT MET if not.

>>> qualitative_label("O=C1CCC(N2C(=O)c3cccc4c(Cc5ccc(CN6CCN(C(=O)c7ccnc(-n8ccnc8)n7)CC6)cc5)ccc2c34)C(=O)N1 (stereo not shown)")
"NOT MET"
>>> qualitative_label("O=C1CCC(N2C(=O)c3cccc4c(Cc5ccc(CN6CCN(c7ccnc(-n8cnc(C(F)(F)F)c8)n7)CC6)cc5)ccc2c34)C(=O)N1 (stereo not shown)")
"MET"
>>> qualitative_label("O=C1CCC(N2C(=O)c3cccc4c(Cc5ccc(CN6CCN(C(=O)c7cccc(-n8ccnc8)n7)CC6)cc5)ccc2c34)C(=O)N1 (stereo not shown)")
"NOT MET"
>>> qualitative_label("Cc1nc(N2CCN(Cc3ccc(Cc4ccc5c6c(cccc46)C(=O)N5[C@H]4CCC(=O)NC4=O)cc3)CC2)cc(-n2cnc(C(F)(F)F)c2)n1")
"MET"
>>> qualitative_label("Cc1nnc(-c2cccc(N3CCN(Cc4ccc(Cc5ccc6c7c(cccc57)C(=O)N6C5CCC(=O)NC5=O)cc4)CC3)n2)s1 (stereo not shown)")
"MET"
>>> qualitative_label("O=C1CCC(N2C(=O)c3cccc4c(Cc5ccc(CN6CCN(c7ccnc(-n8ccnc8)n7)CC6)cc5)ccc2c34)C(=O)N1 (stereo not shown)")
"MET"
>>> qualitative_label("O=C1CC[C@H](N2Cc3c(OCc4ccc(CN5CCN(c6ccnc(-n7ccnc7)n6)CC5)cc4)cccc3C2=O)C(=O)N1")
"NOT MET"
>>> qualitative_label("Cc1ncc(-c2nc(N3CCN(Cc4ccc(Cc5ccc6c7c(cccc57)C(=O)N6C5CCC(=O)NC5=O)cc4)CC3)cc(C(F)(F)F)n2)s1 (stereo not shown)")
"NOT MET"
>>> qualitative_label("Cc1nc(N2CCN(Cc3ccc(Cc4ccc5c6c(cccc46)C(=O)N5[C@@H]4CCC(=O)NC4=O)cc3)CC2)cc(-n2cnc(C(F)(F)F)c2)n1")
"NOT MET"
>>> qualitative_label("Cc1ncn(-c2cccc(N3CCN(Cc4ccc(Cc5ccc6c7c(cccc57)C(=O)N6C5CCC(=O)NC5=O)cc4)CC3)n2)n1 (stereo not shown)")
"MET"

---

Each record here notes measured Dmax.
# TARGET_SYSTEM: IKZF3 (Homo sapiens, UniProt Q96SW2+Q9UKT9)
# Construct: endogenous in cells; host or cells: NCI-H929
# EXPERIMENT_SUMMARY: Protein degradation assay (In-Cell Western), IKZF3
# Type: cell-based
# CONDITION_INFO: NCI-H929 cells, 24 hours
VALUE_KIND: Dmax (%)

>>> numeric_readout("Cc1ncn(-c2cccc(N3CCN(Cc4ccc(Cc5ccc6c7c(cccc57)C(=O)N6C5CCC(=O)NC5=O)cc4)CC3)n2)n1 (stereo not shown)")
77.1
>>> numeric_readout("O=C1CCC(N2C(=O)c3cccc4c(Cc5ccc(CN6CCN(C(=O)c7ccnc(-n8ccnc8)n7)CC6)cc5)ccc2c34)C(=O)N1 (stereo not shown)")
73.8
>>> numeric_readout("Cc1nc(N2CCN(Cc3ccc(Cc4ccc5c6c(cccc46)C(=O)N5[C@@H]4CCC(=O)NC4=O)cc3)CC2)cc(-n2cnc(C(F)(F)F)c2)n1")
75
>>> numeric_readout("Cc1ncc(-c2nc(N3CCN(Cc4ccc(Cc5ccc6c7c(cccc57)C(=O)N6C5CCC(=O)NC5=O)cc4)CC3)cc(C(F)(F)F)n2)s1 (stereo not shown)")
74.1

---

# TARGET_SYSTEM: IKZF1 (Homo sapiens, UniProt Q13422+Q96SW2)
# Construct: NCI-H929 cells were inoculated into a 96-well plate at 100,000 cells per well and cultured overnight; endogenous in cells; host or cells: NCI-H929
# EXPERIMENT_SUMMARY: Protein degradation assay (In-Cell Western), IKZF1
# Format: cell-based
# CONDITION_INFO: NCI-H929 cells, 24 hours
Each record here notes measured log10 of DC50.
VALUE_KIND: log10 of DC50 (log10 of the value in nM)

>>> numeric_readout("Cc1nc(N2CCN(Cc3ccc(Cc4ccc5c6c(cccc46)C(=O)N5[C@@H]4CCC(=O)NC4=O)cc3)CC2)cc(-n2cnc(C(F)(F)F)c2)n1")
-0.47
>>> numeric_readout("Cc1nnc(-c2cccc(N3CCN(Cc4ccc(Cc5ccc6c7c(cccc57)C(=O)N6C5CCC(=O)NC5=O)cc4)CC3)n2)s1 (stereo not shown)")
-1.00
>>> numeric_readout("O=C1CCC(N2C(=O)c3cccc4c(Cc5ccc(CN6CCN(c7ccnc(-n8cnc(C(F)(F)F)c8)n7)CC6)cc5)ccc2c34)C(=O)N1 (stereo not shown)")
-0.01
>>> numeric_readout("O=C1CCC(N2C(=O)c3cccc4c(Cc5ccc(CN6CCN(C(=O)c7ccnc(-n8ccnc8)n7)CC6)cc5)ccc2c34)C(=O)N1 (stereo not shown)")
-0.64
>>> numeric_readout("Cc1ncn(-c2cccc(N3CCN(Cc4ccc(Cc5ccc6c7c(cccc57)C(=O)N6C5CCC(=O)NC5=O)cc4)CC3)n2)n1 (stereo not shown)")
-1.11
>>> numeric_readout("Cc1nc(N2CCN(Cc3ccc(Cc4ccc5c6c(cccc46)C(=O)N5[C@H]4CCC(=O)NC4=O)cc3)CC2)cc(-n2cnc(C(F)(F)F)c2)n1")
-0.43
>>> numeric_readout("Cc1ncc(-c2nc(N3CCN(Cc4ccc(Cc5ccc6c7c(cccc57)C(=O)N6C5CCC(=O)NC5=O)cc4)CC3)cc(C(F)(F)F)n2)s1 (stereo not shown)")
0.95
>>> numeric_readout("O=C1CCC(N2C(=O)c3cccc4c(Cc5ccc(CN6CCN(C(=O)c7cccc(-n8ccnc8)n7)CC6)cc5)ccc2c34)C(=O)N1 (stereo not shown)")
-0.42
>>> numeric_readout("O=C1CCC(N2C(=O)c3cccc4c(Cc5ccc(CN6CCN(c7ccnc(-n8ccnc8)n7)CC6)cc5)ccc2c34)C(=O)N1 (stereo not shown)")
-1.09
>>> numeric_readout("O=C1CC[C@H](N2Cc3c(OCc4ccc(CN5CCN(c6ccnc(-n7ccnc7)n6)CC5)cc4)cccc3C2=O)C(=O)N1")
-0.51
